Measured IC50, listed per entry.
Tested on: Human immunodeficiency virus 1
protocol-details: Antiviral activity against HIV1 3B infected in human MT4 cells assessed as protection from virus-induced cytopathogenicity by MTT assay
Assay type: functional, organism-based
condition-set: Human immunodeficiency virus 1, 3B
Record the value in µM, omitting the unit from your answer.

These solved cases illustrate the format of a correct answer.
Cc1csc(-c2nc(COc3c4cc(CC(=O)[O-])cc3Cc3cc(CC(=O)[O-])cc(c3O)Cc3cc(CC(=O)[O-])cc(c3OCc3csc(-c5nc(C)cs5)n3)Cc3cc(CC(=O)[O-])cc(c3O)C4)cs2)n1.[Na+].[Na+].[Na+].[Na+] :: 16.5
O=C([O-])Cc1cc2c(O)c(c1)Cc1cc(CC(=O)[O-])cc(c1O)Cc1cc(CC(=O)[O-])cc(c1O)Cc1cc(CC(=O)[O-])cc(c1O)C2.[Na+].[Na+].[Na+].[Na+] :: 44
O=S(=O)([O-])c1cc2c(O)c(c1)Cc1cc(S(=O)(=O)[O-])cc(c1O)Cc1cc(S(=O)(=O)[O-])cc(c1O)Cc1cc(S(=O)(=O)[O-])cc(c1O)C2.[Na+].[Na+].[Na+].[Na+] :: 38
Cc1nc(-c2nc(COc3c4cc(CC(=O)[O-])cc3Cc3cc(CC(=O)[O-])cc(c3O)Cc3cc(CC(=O)[O-])cc(c3OCc3nc(-c5nc(C)c(C(=O)[O-])s5)sc3C(=O)[O-])Cc3cc(CC(=O)[O-])cc(c3O)C4)c(C(=O)[O-])s2)sc1C(=O)[O-].[Na+].[Na+].[Na+].[Na+].[Na+].[Na+].[Na+].[Na+] :: 14

Consider `Cc1csc(-c2nc(COc3c4cc(CP(=O)([O-])O)cc3Cc3cc(CP(=O)([O-])O)cc(c3O)Cc3cc(CP(=O)([O-])O)cc(c3OCc3csc(-c5nc(C)cs5)n3)Cc3cc(CP(=O)([O-])O)cc(c3O)C4)cs2)n1.[Na+].[Na+].[Na+].[Na+]` . Its measured IC50 is 14

----------
protocol-details: Cytotoxicity against human MT4 cells by MTT assay
Assay type: cell-based
observation-type: CC50

Cc1nc(-c2nc(COc3c4cc(CC(=O)[O-])cc3Cc3cc(CC(=O)[O-])cc(c3O)Cc3cc(CC(=O)[O-])cc(c3OCc3nc(-c5nc(C)c(C(=O)[O-])s5)sc3C(=O)[O-])Cc3cc(CC(=O)[O-])cc(c3O)C4)c(C(=O)[O-])s2)sc1C(=O)[O-].[Na+].[Na+].[Na+].[Na+].[Na+].[Na+].[Na+].[Na+] :: > 100 µM

Consider `O=P([O-])(O)Cc1cc2c(O)c(c1)Cc1cc(CP(=O)([O-])O)cc(c1O)Cc1cc(CP(=O)([O-])O)cc(c1O)Cc1cc(CP(=O)([O-])O)cc(c1O)C2.[Na+].[Na+].[Na+].[Na+]` . Its measured CC50 is > 100 µM

Consider `O=C([O-])Cc1cc2c(O)c(c1)Cc1cc(CC(=O)[O-])cc(c1O)Cc1cc(CC(=O)[O-])cc(c1O)Cc1cc(CC(=O)[O-])cc(c1O)C2.[Na+].[Na+].[Na+].[Na+]` . Its measured CC50 is > 100 µM
